Please provide measured pIC50 for the entries that follow.
# target under test: mouse FAP (Mus musculus, UniProt P97321)
# Sequence (P97321 26-761): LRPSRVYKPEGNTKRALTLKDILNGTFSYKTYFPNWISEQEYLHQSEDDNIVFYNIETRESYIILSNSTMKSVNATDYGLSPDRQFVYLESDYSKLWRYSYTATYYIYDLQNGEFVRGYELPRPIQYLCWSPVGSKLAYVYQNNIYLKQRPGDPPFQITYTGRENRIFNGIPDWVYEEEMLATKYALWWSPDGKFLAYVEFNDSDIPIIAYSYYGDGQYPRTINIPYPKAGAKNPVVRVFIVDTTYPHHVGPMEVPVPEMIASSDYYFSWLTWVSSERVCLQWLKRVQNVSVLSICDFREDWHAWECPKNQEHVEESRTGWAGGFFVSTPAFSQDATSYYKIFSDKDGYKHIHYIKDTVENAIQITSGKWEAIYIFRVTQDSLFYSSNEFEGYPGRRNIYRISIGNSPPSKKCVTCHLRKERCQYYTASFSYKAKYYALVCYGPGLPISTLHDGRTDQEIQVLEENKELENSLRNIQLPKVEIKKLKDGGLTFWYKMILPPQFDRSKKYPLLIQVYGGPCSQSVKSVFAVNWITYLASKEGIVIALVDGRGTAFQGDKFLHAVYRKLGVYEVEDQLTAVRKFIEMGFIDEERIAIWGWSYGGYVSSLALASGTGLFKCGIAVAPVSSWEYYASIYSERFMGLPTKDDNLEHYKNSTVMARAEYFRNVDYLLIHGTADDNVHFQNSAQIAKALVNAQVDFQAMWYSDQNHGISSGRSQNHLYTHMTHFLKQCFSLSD
Counter-ions that a name gives are not always drawn. Non-standard residues stand in square brackets, D forms with d. Residues, ends and D or L forms follow the SMILES beside them. AEF = NCCOc1ccc(C[C@H](N)C(=O)O)cc1; NMeF = CN[C@@H](Cc1ccccc1)C(=O)O; dHyp = O=C(O)[C@H]1C[C@H](O)CN1; αMeD = C[C@](N)(CC(=O)O)C(=O)O; Ahp(2) = CCCCC[C@H](N)C(=O)O; hSer = N[C@@H](CCO)C(=O)O
// field semantics: pIC50 = negative decimal log of concentration (mol/L)

Data request: Returns the measured pIC50 for the input compound. Input: CCCCC[C@@H]1NC(=O)[C@H](Cc2ccc(OCCN)cc2)NC(=O)[C@H](Cc2ccccc2)N(C)C(=O)CNC(=O)[C@H](CCO)NC(=O)[C@H]2CCCN2C(=O)[C@H](CC(=O)O)NC(=O)[C@H](Cc2ccc(O)cc2)NC(=O)CNC(=O)[C@H](Cc2c[nH]c3ccccc23)NC1=O [Example A47, TFA salt] (cyclo([AEF][Ahp(2)]WGYD[dP][hSer]G[NMeF]))
Data returned: 9.22

Data request: How about CCCCC[C@@H]1NC(=O)[C@H](Cc2ccc(O)cc2)NC(=O)[C@H](Cc2ccccc2)N(C)C(=O)CNC(=O)[C@H](CCCCN)NC(=O)[C@H]2C[C@H](O)CN2C(=O)[C@H](CC(=O)O)NC(=O)[C@H](Cc2ccc(O)cc2)NC(=O)CNC(=O)[C@H](Cc2c[nH]c3ccccc23)NC1=O [Example A41, TFA salt] (cyclo([Ahp(2)]WGYD[dHyp]KG[NMeF]Y)) ?
Data returned: 8.28

Data request: How about CCCCC[C@@H]1NC(=O)[C@H](Cc2ccc(O)cc2)NC(=O)[C@H](Cc2ccccc2)N(C)C(=O)CNC(=O)CNC(=O)[C@H]2CCCN2C(=O)[C@](C)(CC(=O)O)NC(=O)[C@H](Cc2ccc(O)cc2)NC(=O)CNC(=O)[C@H](Cc2c[nH]c3ccccc23)NC1=O [Example A72] (cyclo([Ahp(2)]WGY[αMeD][dP]GG[NMeF]Y)) ?
Data returned: 6.00

Just for reference, patent US20250090699A1 is where these values come from.
